- System: L1210 leukemia ip in BDF1 mice, survival T/C
- ASSAY_DETAILS: NCI In Vivo Anticancer Drug Screen. Data for tumor model L1210 Leukemia (intraperitoneal) in B6D2F1 (BDF1) mice
- STATED_CONDITIONS: endpoint: mean survival time; dose: 400.0 mg/kg/injection; schedule: Q04DX003 (ip); vehicle: saline; higher = longer survival
Toxic doses and inconclusive results are not listed.
Below, each of the compounds is paired with its reported T/C value.

> print(dat)
                   compound  endpoint.label         obs.value
1                 NC1CCCCC1             T/C  100 % of control
2  Nc1cncc([N+](=O)[O-])c1N             T/C   94 % of control
3             OCc1cccc(F)c1             T/C  104 % of control

Now for a further compound.
INPUT: Request the reported T/C associated with CN=C1N[N+]2=C(C)CSCC2(C)S1 (centres undefined)
OUTPUT: 89 % of control

----------
- System: L1210 leukemia ip in BDF1 mice, survival T/C
- ASSAY_DETAILS: NCI In Vivo Anticancer Drug Screen. Data for tumor model L1210 Leukemia (intraperitoneal) in B6D2F1 (BDF1) mice
- STATED_CONDITIONS: endpoint: mean survival time; dose: 400.0 mg/kg/injection; schedule: Q04DX003 (ip); vehicle: Klucel (hydroxypropylcellulose) (HPC); higher = longer survival
Inconclusive results and toxic doses are left out.
ENDPOINT_LABEL: T/C

INPUT: Please look up its T/C: "Nc1ccc(S(=O)(=O)O)c2cccc(O)c12"
OUTPUT: 101 % of control

INPUT: Then what about the compound "COc1ccc2c(c1)CN(S(=O)(=O)c1ccc(C)cc1)C=CC2=O" ?
OUTPUT: 98 % of control

INPUT: Let us now turn to "COc1ccc(C(=O)NC(=S)Nc2ccc(I)cc2)cc1"
OUTPUT: 94 % of control

INPUT: Can you handle "O=C(O)c1c(-c2ccccc2)[nH]c2cc(Cl)ccc2c1=O" next?
OUTPUT: 104 % of control

INPUT: Then "CC(=O)C(CCS(C)(=O)=O)(CCS(C)(=O)=O)C(=O)O" ?
OUTPUT: 103 % of control

INPUT: Next compound up: CCC(CO)Nc1nc2c(Cl)cc(Cl)cc2c2ccccc12 (stereo not drawn)
OUTPUT: 90 % of control

INPUT: # iterate: "CC(C)(CCC(=S)N1CCOCC1)c1ccccc1"
OUTPUT: 102 % of control

INPUT: Request: CCOC(=O)CC(N)C(=O)OCC (stereo not drawn)
OUTPUT: 87 % of control

INPUT: And for CC(C)C(NC(=O)c1ccccc1)C(=O)O (stereo not drawn) ?
OUTPUT: 100 % of control

INPUT: One more compound: "O=[N+]([O-])c1cccc(C=Nc2cccc(C(F)(F)F)c2)c1"
OUTPUT: 101 % of control

INPUT: Input "N=C1SCc2c1sc1ccccc21"
OUTPUT: 103 % of control

INPUT: Note, next up: "c1cc(N2CCOCC2)ccc1Cc1ccc(N2CCOCC2)cc1"
OUTPUT: 93 % of control

INPUT: Now this one: "COc1ccc(/C=C(\CC(=O)O)C(=O)O)cc1OC"
OUTPUT: 102 % of control

----------
T/C values by entry
- Test system: L1210 leukemia ip in BDF1 mice, survival T/C
- ASSAY_DETAILS: NCI In Vivo Anticancer Drug Screen. Data for tumor model L1210 Leukemia (intraperitoneal) in B6D2F1 (BDF1) mice
- STATED_CONDITIONS: endpoint: mean survival time; dose: 50.0 mg/kg/injection; schedule: Q01DX009 (ip); vehicle: saline with Tween-80; higher = longer survival
Toxic doses and inconclusive results are not listed.

// known answers, use as guide
> print(dat)
                                   compound         obs.value
1     C=C(C)C1CCC(C)CC1O (stereo not drawn)  111 % of control
2  [NH-]C(CC(N)=O)C(=O)O.[NH-]C(CC(N)=O)C(=O)O.[Pd+2] (stereo not drawn)   93 % of control
3  COc1cc(C2NC(=S)NC2=S)ccc1O (stereo not drawn)   96 % of control
4  O=C1N(Cl)C(=O)C(c2ccc(C(F)(F)F)cc2)(c2ccc(C(F)(F)F)cc2)N1Cl   88 % of control
5                   O=c1[nH]nc(-c2ccccn2)o1   97 % of control
6             O=C(O)c1ccc(N=Nc2ncc[nH]2)cc1   87 % of control

INPUT: // lookup T/C for O=C(O)C(c1ccccc1)C1CCCC1 (stereo not drawn)
OUTPUT: 102 % of control

INPUT: Follow-up item: CC(C)(C)OC(=O)NC(CCCCNC(=O)C(F)(F)F)C(=O)ON1C(=O)CCC1=O (stereo not drawn)
OUTPUT: 95 % of control

----------
- Test system: L1210 leukemia ip in BDF1 mice, survival T/C
- ASSAY_DETAILS: NCI In Vivo Anticancer Drug Screen. Data for tumor model L1210 Leukemia (intraperitoneal) in B6D2F1 (BDF1) mice
- STATED_CONDITIONS: endpoint: mean survival time; dose: 100.0 mg/kg/injection; schedule: Q04DX003 (ip); vehicle: saline; higher = longer survival
Inconclusive results and toxic doses are left out.
Measured T/C, listed per entry for reference.

Illustrative cases are given below, each with its answer.
> print(dat)
                                    compound                             target.entity  endpoint.label         obs.value
 1                      N#CCCN1CCCC(=O)NC1=O  L1210 leukemia ip in BDF1 mice, survival T/C             T/C  105 % of control
 2                          CCCCOc1ccc(N)cn1  L1210 leukemia ip in BDF1 mice, survival T/C             T/C   96 % of control
 3                              O=C(CCl)NCCO  L1210 leukemia ip in BDF1 mice, survival T/C             T/C  108 % of control
 4  O=C(C[n+]1cccc(C(=O)Nc2ccccc2)c1)Nc1ccccc1  L1210 leukemia ip in BDF1 mice, survival T/C             T/C   95 % of control
 5  Cc1cc(=O)c2cc(Cc3ccc4[nH]c(C)cc(=O)c4c3)ccc2[nH]1  L1210 leukemia ip in BDF1 mice, survival T/C             T/C   94 % of control
 6  CN(C)Cc1cc(Cl)cc(Cc2cc(Cl)cc(CN(C)C)c2O)c1O  L1210 leukemia ip in BDF1 mice, survival T/C             T/C   93 % of control
 7  CCNC(C)(C)C(Cl)c1cccs1 (stereo unspecified)  L1210 leukemia ip in BDF1 mice, survival T/C             T/C   96 % of control
 8                                    [Mg+2]  L1210 leukemia ip in BDF1 mice, survival T/C             T/C   93 % of control
 9                                 CNC(=O)NC  L1210 leukemia ip in BDF1 mice, survival T/C             T/C   94 % of control
10            C[Si](C)(C)O[Si](C)(C)c1ccccc1  L1210 leukemia ip in BDF1 mice, survival T/C             T/C  103 % of control

INPUT: Tell me the measured T/C of CC1CC(C(C)CC(=O)O)C(=O)O1 (stereo unspecified) , please.
OUTPUT: 111 % of control

INPUT: Another compound: "O=C(O)COCC(F)(F)C(F)(F)C(F)(F)COCC(=O)O"
OUTPUT: 97 % of control

INPUT: Again, but for "C1CCCCCC(C2CCCCCCCCCCC2)CCCCC1"
OUTPUT: 92 % of control

INPUT: Same lookup for COC(=O)C(C)CN1CCCC1 (stereo unspecified) , please.
OUTPUT: 104 % of control

INPUT: Can you handle COc1ccc(OC(=O)N2C=Cc3ccccc3C2C#N)cc1 (stereo unspecified) next?
OUTPUT: 105 % of control

INPUT: Note, next up: CSc1ccccc1C(O)Cc1ccc([N+](=O)[O-])cc1 (stereo unspecified)
OUTPUT: 98 % of control

----------
- System: L1210 leukemia ip in BDF1 mice, survival T/C
- ASSAY_DETAILS: NCI In Vivo Anticancer Drug Screen. Data for tumor model L1210 Leukemia (intraperitoneal) in B6D2F1 (BDF1) mice
- STATED_CONDITIONS: endpoint: mean survival time; dose: 12.5 mg/kg/injection; schedule: Q01DX009 (ip); vehicle: saline; higher = longer survival
- Experimental: The antitumor activity of compounds was measured in mice bearing transplantable tumors. Survival or tumor size were measured and the results are expressed as the measurement made in the treated group (T) divided by the measurement made in the vehicle treated control group (C). The tumor model used in this assay is L1210 Leukemia (intraperitoneal) in B6D2F1 (BDF1) mice
Inconclusive results and toxic doses are left out.
ENDPOINT_LABEL: T/C

Worked examples follow.
> print(dat)
                                   compound         obs.value
1   CCC(C)[Se][Se]C(C)CC (stereo not drawn)   98 % of control
2  CC1CC(C)(C)N=C(C(C)C)O1 (stereo not drawn)  100 % of control

Shifting focus to the compound that follows.
INPUT: Request the reported T/C associated with "FC(F)(F)c1nc2nc(Cl)c(Cl)nc2[nH]1"
OUTPUT: 94 % of control

Data origin: PubChem BioAssay AID248
